Biological target: Histone-lysine N-methyltransferase EHMT2 (Homo sapiens)
Test: qHTS Assay for Inhibitors of Histone Lysine Methyltransferase G9a; also: nearly all actives have a fitted effect of over 75% in size
Conditions: G9a H3K9 monomethylation, AlphaScreen, 2 h; series mostly up to 59 µM
Method: Methylated lysines, on the N-terminal tails of histone proteins serve as epigenetic markers to recruit factors that can then modify local chromatin structure to lead to functional consequences. […] Methylation of biotinylated-histone peptide is measured through specific antibody-based detection, in conjunction with streptavidin-coated donor and anti-IgG antibody-coated acceptor beads. […]
In all, about 350,000 compounds went through this assay and about 31,000 (8.9%) were called active. Not shown: some 15% with an inconclusive outcome. Calls follow the shape of the dose curve; as a rule, active = well fitted inhibition curve with a large enough effect; inconclusive = small, poorly fitted or top-dose-only effect; inactive = no such curve, though single readings can be large or run the other way. The sample as a whole holds a higher share of actives than the screen did.
Choose one outcome from this list and give only that: True = active, False = inactive

Query: Which outcome did this test record for the molecule "O=C(CSc1nnc(CNC(=O)c2ccc(F)cc2)o1)Nc1ccc2c(c1)OCO2" ?
Result: False

Query: Called result for N#Cc1ccc(C2N=C(c3ccccc3)NO2)cc1 (stereo not drawn)
Result: False

Query: Assay result, entry "Cc1ccc(CN(C)CC(=O)Nc2cccc([N+](=O)[O-])c2)o1" — outcome?
Result: False

Query: Please state the recorded outcome for this molecule: "Cc1ccc(S(=O)(=O)NCCC(=O)OCC(=O)N(C)c2ccccc2)cc1"
Result: False

Query: Please share the test call associated with "O=C(CSc1oc(-c2ccco2)nc1S(=O)(=O)c1ccccc1)c1ccc(Cl)cc1" .
Result: False

Query: Entry "Cc1cc(NCc2ccco2)n2c(nc3ccccc32)c1C#N" : call = ?
Result: False

Query: What was the test verdict on "COc1ccc(C)cc1N(CC(=O)N1CCC(C)CC1)S(=O)(=O)c1ccc(C)cc1" ?
Result: False

Query: // param item: "COc1ccc(-n2nnc(-c3nsc(NC(=O)c4ccc(C)c(C)c4)n3)c2C)cc1Cl" ; yields the recorded call
Result: False

Query: How did this test come out for "O=C(Nc1cccc(C(F)(F)F)c1)c1cnccn1" ?
Result: False

Query: Called result for Cc1cc2c(cc1C)[n+](C)cn2CC(O)COCC1CC=CCC1 (stereo not drawn)
Result: True

Query: Which outcome was assigned to "COc1ccc(NC(=O)CSc2nccn2Cc2ccc3c(c2)OCO3)cc1" in this test?
Result: False

Query: Call for entry "O=C(NNC(=S)NCc1ccco1)C(c1ccccc1)c1ccccc1" :
Result: False

Query: Check the results log: what was the call for "O=C(OCC(=O)N1CCCCCC1)c1cnc(Cl)c(Cl)c1" ?
Result: False

Query: Kindly provide the recorded test outcome for the following molecule: O=c1cc(CO)oc(C(Nc2cccc([N+](=O)[O-])c2)c2ccccn2)c1O (stereo not drawn)
Result: True

Query: Which outcome was entered for the molecule "COc1ccc(CCNC(=O)c2ccc3c(c2)nc(C)n3-c2ccc(Br)cc2)cc1OC" in this test?
Result: False

Query: Check the results log: what was the call for COc1ccc(-c2noc(C(C)NS(=O)(=O)c3ccc(NC(C)=O)cc3)n2)cc1 (stereo not drawn) ?
Result: False

Query: Status in this test for "COc1ccc(/C=N\NC(=O)c2sc(N)nc2C)cc1OC" ?
Result: False

Query: Give the logged outcome of this assay for the following molecule: "COc1cccc(OC)c1C(=O)NC(=S)NCc1ccco1"
Result: False

Query: Which outcome was entered for the molecule "CCOc1cc(/C=C(\C#N)c2nc(-c3cccs3)c(NC(C)=O)s2)ccc1O" in this test?
Result: False

Query: Field: outcome | Entry: "O=C(Nc1cccc([N+](=O)[O-])c1)Nn1cnnc1"
Result: False

Query: # fetch the recorded call for "COc1cccc(Cn2c(SCc3ccc(C(=O)N4CCCCC4)cc3)nc3ccncc32)c1" here
Result: False

Query: Give the logged outcome of this assay for the following molecule: "FC(F)Oc1ccc(NC(=S)NCc2ccco2)cc1Cl"
Result: True

Query: What did the test return for "COc1ccccc1CNC(=O)CCCCn1c(=O)c2ccccc2n(CC(=O)Nc2cc(Cl)ccc2C)c1=O" ?
Result: False

Query: Per the assay record, what outcome was assigned to "CC(C)Cn1c(=O)c2ccccc2n2c(CCC(=O)N3CCN(c4cccc(Cl)c4)CC3)nnc12" ?
Result: False

Query: Outcome logged for "Cc1ccc(-c2nnc3c4ccccc4c(C)nn23)cc1NC(=O)c1cccc(Br)c1" in this assay:
Result: False

Query: What classification did "COc1ccc(-c2nc(C)c(CCNC(=O)c3ccc(C(F)(F)F)cc3)s2)cc1OC" end up with in this test?
Result: False

Query: What did this assay record as the result for "COc1cccc(Cn2c(SCc3ccc(C(=O)N4CCC(C)CC4)cc3)nc3ccncc32)c1" ?
Result: True

Query: Test call for this molecule, please: "COc1cc(NC(=S)NCc2ccco2)c(OC)cc1Cl"
Result: True

Query: Just curious, what result did "CCc1nn(CC(=O)N2CCN(c3cccc(C(F)(F)F)c3)CC2)c(=O)c2cc3occc3n12" get here?
Result: False

Query: Which outcome did this test record for the molecule "Cc1ccc(-c2nn(CCC(=O)Nc3ccc(Cl)c(Cl)c3)c(=O)c3ccccc23)cc1" ?
Result: False

Query: Which outcome was assigned to "O=C(NC(=S)Nc1cccc2c(O)cccc12)c1cccc(Br)c1" in this test?
Result: True

Query: I would be grateful if you could indicate the recorded call for "COc1ccc(C(=O)Nc2onc3c2CCCC3)cc1" .
Result: False

Query: For "Cc1ccc2nc(-c3ccc(Br)cc3)cn2c1" , what call appears in the results of this test?
Result: False

Query: Given "O=C(N/N=C/c1ccccc1O)C1CCCC1" , state the outcome it received in this test.
Result: False

Query: Outcome logged for "O=C(Nc1ccn(Cc2ccccc2)n1)c1cccc(F)c1" in this assay:
Result: False

Query: What classification did "COc1ccc(/C=N/NS(=O)(=O)c2ccc(NC(C)=O)cc2)cc1" end up with in this test?
Result: False

Query: What did the test return for "O=C(CSc1nc2nccnc2c(=O)n1CCc1c[nH]c2ccccc12)Nc1ccccc1F" ?
Result: False

Query: Returns: the outcome recorded for Cc1ccccc1-n1nc(C)c2c1N=C1C(Cl)=CC(Cl)=CN1C2c1ccc(C(=O)O)cc1 (stereo not drawn) in this assay.
Result: True

Query: Given "CCc1ccc(NC(=O)Cn2nnc(C(=O)NCc3ccc(OC)cc3)c2N)cc1" , state the outcome it received in this test.
Result: False

Query: What outcome does the record of this test show for "Cc1ccccc1-c1nc(C#N)c(NCc2ccco2)o1" ?
Result: True

Query: Identify the outcome logged in this assay for the molecule shown: "Cn1c(=O)c2c(ncn2CC(=O)Nc2cccc(C(F)(F)F)c2)n(C)c1=O"
Result: False

Query: Test call, this molecule: "Cc1ccc(Cn2ccc(NC(=O)c3cc(C(C)C)on3)n2)cc1"
Result: False

Query: Please state the recorded outcome for this molecule: "Cc1ccc(NC(=O)CSc2nc3ccccc3c3nc(CCn4cncc4C)nn23)cc1F"
Result: False
